Protocol summary: AUC (0 to t) in SCID mouse at 1 mg/kg, iv by LC-MS/MS analysis
Format: ADME, organism-based
Parameters: dose 1 mg/kg
Reported conditions: in vivo
Property label: AUC(0-t)

Compound | Observed measurement
N#Cc1ccc(O[C@H]2CC[C@H](NC(=O)c3ccc(N4CCC(N5CCN(c6ccc7c(c6)C(=O)N(C6CCC(=O)NC6=O)C7=O)CC5)CC4)cc3)CC2)cc1Cl (stereo partly specified) | 2420 ng·h/mL

###

Protocol summary: Drug distribution in plasma of CB17:SCID mouse xenografted with human VCaP cells at 20 mg/kg, po measured at 1 hrs by LCMS analysis
Assay type: ADME, organism-based

Molecule | concentration at 1 h / ng/mL
CN(c1ccc(C#N)c(Cl)c1)[C@H]1CC[C@H](NC(=O)c2ccc(N3CCN(C4CN(c5ccc6c(c5)C(=O)N(C5CCC(=O)NC5=O)C6=O)C4)CC3)cc2)CC1 (stereo partly specified) | 70

###

Vd overview
Protocol summary: Volume of distribution at steady state in SCID mouse at 1 mg/kg, iv by LC-MS/MS analysis
Format: ADME, organism-based
Reported conditions: in vivo, read-out: Vdss
Property label: Vd (L/kg)

Compound | Property label | Quantity unit | Observed measurement
N#Cc1ccc(O[C@H]2CC[C@H](NC(=O)c3ccc(N4CCC(N5CCN(c6ccc7c(c6)C(=O)N(C6CCC(=O)NC6=O)C7=O)CC5)CC4)cc3)CC2)cc1Cl (some centres not stated) | Vd | L/kg | 3
CN(c1ccc(C#N)c(Cl)c1)[C@H]1CC[C@H](NC(=O)c2ccc(N3CCN(C4CCN(c5ccc6c(c5)C(=O)N(C5CCC(=O)NC5=O)C6=O)CC4)CC3)cc2)CC1 (some centres not stated) | Vd | L/kg | 2.6

###

Protocol summary: Drug distribution in CB17:SCID mouse xenografted with human VCaP cells assessed as prostate gland to plasma ratio at 20 mg/kg, po measured at 6 hrs by LCMS analysis
Format: ADME, organism-based
Property label: Kp at 6 h

Molecule | Observed measurement
CN(c1ccc(C#N)c(Cl)c1)[C@H]1CC[C@H](NC(=O)c2ccc(N3CCN(C4CN(c5ccc6c(c5)C(=O)N(C5CCC(=O)NC5=O)C6=O)C4)CC3)cc2)CC1 (stereo partly specified) | 0.6

###

Test system: LNCaP
Protocol summary: Growth inhibition of human LNCaP cells carrying AR T878A mutant assessed as cell viability by WST-8 assay
Type: functional, cell-based
pIC50: −log10 of the molar value.
pIC50 overview

Molecule | pIC50
CN(c1ccc(C#N)c(Cl)c1)[C@H]1CC[C@H](NC(=O)c2ccc(N3CC(CN4CCN(c5ccc6c(c5)C(=O)N(C5CCC(=O)NC5=O)C6=O)CC4)C3)cc2)CC1 (some centres undefined) | 7.94
CN(c1ccc(C#N)c(Cl)c1)[C@H]1CC[C@H](NC(=O)c2ccc(N3CCN(C4CN(c5ccc6c(c5)C(=O)N(C5CCC(=O)NC5=O)C6=O)C4)CC3)cc2)CC1 (some centres undefined) | 7.79
CN(c1ccc(C#N)c(Cl)c1)[C@H]1CC[C@H](NC(=O)c2ccc(N3CC(N4CCN(c5ccc6c(c5)C(=O)N(C5CCC(=O)NC5=O)C6=O)CC4)C3)cc2)CC1 (some centres undefined) | 7.66
CN(c1ccc(C#N)c(Cl)c1)[C@H]1CC[C@H](NC(=O)c2ccc(N3CCN(C4CCN(c5ccc6c(c5)C(=O)N(C5CCC(=O)NC5=O)C6=O)CC4)CC3)cc2)CC1 (some centres undefined) | 7.65

###

Protocol summary: Drug distribution in tumor of CB17:SCID mouse xenografted with human VCaP cells at 20 mg/kg, po measured at 6 hrs by LCMS analysis
Assay type: ADME, organism-based, Neoplasm
Reported conditions: read-out: Drug uptake
Property label: concentration at 6 h (ng/g)

Compound | Observed measurement
CN(c1ccc(C#N)c(Cl)c1)[C@H]1CC[C@H](NC(=O)c2ccc(N3CCN(C4CCN(c5ccc6c(c5)C(=O)N(C5CCC(=O)NC5=O)C6=O)CC4)CC3)cc2)CC1 (some centres undefined) | 120
CN(c1ccc(C#N)c(Cl)c1)[C@H]1CC[C@H](NC(=O)c2ccc(N3CCC(N4CCN(c5ccc6c(c5)C(=O)N(C5CCC(=O)NC5=O)C6=O)CC4)CC3)cc2)CC1 (some centres undefined) | 306
CN(c1ccc(C#N)c(Cl)c1)[C@H]1CC[C@H](NC(=O)c2ccc(N3CC(N4CCN(c5ccc6c(c5)C(=O)N(C5CCC(=O)NC5=O)C6=O)CC4)C3)cc2)CC1 (some centres undefined) | 129
CN(c1ccc(C#N)c(Cl)c1)[C@H]1CC[C@H](NC(=O)c2ccc(N3CCN(C4CN(c5ccc6c(c5)C(=O)N(C5CCC(=O)NC5=O)C6=O)C4)CC3)cc2)CC1 (some centres undefined) | 201

###

Tested on: VCaP
Protocol summary: Growth inhibition of human VCaP cells assessed as cell viability by WST-8 assay
Format: functional, cell-based
pIC50: −log10 of the molar value.
pIC50 overview
Property label: pIC50

Compound | Op | Observed measurement
N#Cc1ccc(O[C@H]2CC[C@H](NC(=O)c3ccc(N4CCN(CC5CN(c6ccc7c(c6)C(=O)N(C6CCC(=O)NC6=O)C7=O)C5)CC4)cc3)CC2)cc1Cl (stereo partly drawn) | = | 8.17
CN(c1ccc(C#N)c(Cl)c1)[C@H]1CC[C@H](NC(=O)c2ccc(N3CCN(C4CCN(c5ccc6c(c5)C(=O)N(C5CCC(=O)NC5=O)C6=O)CC4)CC3)cc2)CC1 (stereo partly drawn) | = | 9.10
N#Cc1ccc(OC2CCN(C(=O)c3ccc(N4CCC(N5CCN(c6ccc7c(c6)C(=O)N(C6CCC(=O)NC6=O)C7=O)CC5)CC4)cc3)CC2)cc1Cl (stereo not drawn) | < | 6.00
CN(c1ccc(C#N)c(Cl)c1)[C@H]1CC[C@H](NC(=O)c2ccc(N3CCN(C4CN(c5ccc6c(c5)C(=O)N(C5CCC(=O)NC5=O)C6=O)C4)CC3)cc2)CC1 (stereo partly drawn) | = | 8.82
CN(c1ccc(C#N)c(Cl)c1)[C@H]1CC[C@H](NC(=O)c2ccc(N3CC(N4CCN(c5ccc6c(c5)C(=O)N(C5CCC(=O)NC5=O)C6=O)CC4)C3)cc2)CC1 (stereo partly drawn) | = | 8.29
CC(O)(CS(=O)(=O)c1ccc(N2CCN(C3CCN(c4ccc5c(c4)C(=O)N(C4CCC(=O)NC4=O)C5=O)CC3)CC2)cc1)C(=O)Nc1ccc(C#N)c(C(F)(F)F)c1 (stereo not drawn) | < | 6.00
CN(c1ccc(C#N)c(Cl)c1)[C@H]1CC[C@H](NC(=O)c2ccc(N3CC(CN4CCN(c5ccc6c(c5)C(=O)N(C5CCC(=O)NC5=O)C6=O)CC4)C3)cc2)CC1 (stereo partly drawn) | = | 8.37
N#Cc1ncc(N2C(=O)C3(CCC3)N(c3ccc(C(=O)N4CCN(C5CCN(c6ccc7c(c6)C(=O)N(C6CCC(=O)NC6=O)C7=O)CC5)CC4)c(F)c3)C2=S)cc1C(F)(F)F (stereo not drawn) | < | 6.00

###

Protocol summary: Drug distribution in heart of CB17:SCID mouse xenografted with human VCaP cells at 20 mg/kg, po measured at 1 hrs by LCMS analysis
Format: ADME, organism-based
Reported conditions: read-out: Drug uptake

Molecule | Quantity unit | concentration at 1 h
CN(c1ccc(C#N)c(Cl)c1)[C@H]1CC[C@H](NC(=O)c2ccc(N3CCN(C4CN(c5ccc6c(c5)C(=O)N(C5CCC(=O)NC5=O)C6=O)C4)CC3)cc2)CC1 (stereo partly specified) | ng/g | 210

###

Protocol summary: Drug distribution in CB17:SCID mouse xenografted with human VCaP cells assessed as tumor to plasma ratio at 20 mg/kg, po measured at 24 hrs by LCMS analysis
Type: ADME, organism-based

Compound | Kp at 24 h
CN(c1ccc(C#N)c(Cl)c1)[C@H]1CC[C@H](NC(=O)c2ccc(N3CCN(C4CN(c5ccc6c(c5)C(=O)N(C5CCC(=O)NC5=O)C6=O)C4)CC3)cc2)CC1 (stereo partly specified) | 1.4

###

Measured on: Protein cereblon/Androgen receptor (Homo sapiens, UniProt P10275+Q96SW2)
Sequence (P10275 whole entry): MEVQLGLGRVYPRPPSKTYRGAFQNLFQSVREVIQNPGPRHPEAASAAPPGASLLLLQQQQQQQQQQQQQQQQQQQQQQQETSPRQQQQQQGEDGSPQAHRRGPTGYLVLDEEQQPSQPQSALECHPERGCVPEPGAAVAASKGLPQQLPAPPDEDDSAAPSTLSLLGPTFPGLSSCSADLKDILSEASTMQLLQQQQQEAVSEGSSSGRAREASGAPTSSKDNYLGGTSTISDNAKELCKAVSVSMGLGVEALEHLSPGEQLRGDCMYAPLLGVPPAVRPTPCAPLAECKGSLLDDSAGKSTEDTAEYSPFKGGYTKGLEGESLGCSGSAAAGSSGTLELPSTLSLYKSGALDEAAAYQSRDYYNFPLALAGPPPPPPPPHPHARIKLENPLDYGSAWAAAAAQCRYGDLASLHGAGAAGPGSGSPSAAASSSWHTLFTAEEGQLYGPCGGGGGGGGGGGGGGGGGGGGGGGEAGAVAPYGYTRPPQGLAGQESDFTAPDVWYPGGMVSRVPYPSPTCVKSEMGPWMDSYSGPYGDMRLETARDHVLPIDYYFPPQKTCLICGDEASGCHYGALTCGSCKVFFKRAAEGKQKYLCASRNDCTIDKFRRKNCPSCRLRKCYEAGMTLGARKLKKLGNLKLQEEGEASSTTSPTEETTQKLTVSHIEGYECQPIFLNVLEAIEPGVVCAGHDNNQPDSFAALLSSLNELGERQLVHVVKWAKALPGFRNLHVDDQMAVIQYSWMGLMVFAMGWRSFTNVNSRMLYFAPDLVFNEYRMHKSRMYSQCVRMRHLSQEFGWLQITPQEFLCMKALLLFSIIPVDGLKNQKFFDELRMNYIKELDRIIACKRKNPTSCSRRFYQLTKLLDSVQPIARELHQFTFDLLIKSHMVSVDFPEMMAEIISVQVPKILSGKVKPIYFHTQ
Sequence (Q96SW2 whole entry): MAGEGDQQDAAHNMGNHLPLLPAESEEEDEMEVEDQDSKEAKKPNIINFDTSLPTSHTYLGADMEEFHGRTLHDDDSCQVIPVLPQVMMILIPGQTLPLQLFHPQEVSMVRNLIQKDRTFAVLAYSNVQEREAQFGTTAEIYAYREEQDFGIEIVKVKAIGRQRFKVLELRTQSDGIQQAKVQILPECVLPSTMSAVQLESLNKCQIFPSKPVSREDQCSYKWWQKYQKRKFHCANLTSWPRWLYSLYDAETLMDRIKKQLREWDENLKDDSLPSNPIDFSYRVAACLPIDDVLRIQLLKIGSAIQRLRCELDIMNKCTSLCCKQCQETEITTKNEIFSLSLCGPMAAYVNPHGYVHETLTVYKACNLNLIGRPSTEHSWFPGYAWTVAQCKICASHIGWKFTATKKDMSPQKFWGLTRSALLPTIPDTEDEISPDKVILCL
Protocol summary: Protac activity at CRBN/AR in human VCaP cells assessed as AR degradation after 24 hrs by Western blot analysis
Assay type: cell-based
log10 DC50 overview
Property label: log10 DC50 (log10 of the value in pM)

Compound | log10 DC50
N#Cc1ccc(O[C@H]2CC[C@H](NC(=O)c3ccc(NCCCCCCNc4ccc5c(c4)C(=O)N(C4CCC(=O)NC4=O)C5=O)cc3)CC2)cc1Cl (stereo partly drawn) | 2.78
N#Cc1ccc(O[C@H]2CC[C@H](NC(=O)c3ccc(N4CCN(CCCNc5ccc6c(c5)C(=O)N(C5CCC(=O)NC5=O)C6=O)CC4)cc3)CC2)cc1Cl (stereo partly drawn) | 3.43
N#Cc1ccc(O[C@H]2CC[C@H](NC(=O)c3ccc(NCCCCCCCNc4ccc5c(c4)C(=O)N(C4CCC(=O)NC4=O)C5=O)cc3)CC2)cc1Cl (stereo partly drawn) | 2.85
N#Cc1ccc(O[C@H]2CC[C@H](NC(=O)c3ccc(N4CCC(N5CCN(c6ccc7c(c6)C(=O)N(C6CCC(=O)NC6=O)C7=O)CC5)CC4)cc3)CC2)cc1Cl (stereo partly drawn) | 2.30
N#Cc1ccc(O[C@H]2CC[C@H](NC(=O)c3ccc(NCCCCCCCCCNc4ccc5c(c4)C(=O)N(C4CCC(=O)NC4=O)C5=O)cc3)CC2)cc1Cl (stereo partly drawn) | 3.51
N#Cc1ccc(O[C@H]2CC[C@H](NC(=O)c3ccc(N4CCN(C5CN(c6ccc7c(c6)C(=O)N(C6CCC(=O)NC6=O)C7=O)C5)CC4)cc3)CC2)cc1Cl (stereo partly drawn) | 2.00
N#Cc1ccc(O[C@H]2CC[C@H](NC(=O)c3ccc(N4CCN(C5CCN(c6ccc7c(c6)C(=O)N(C6CCC(=O)NC6=O)C7=O)CC5)CC4)cc3)CC2)cc1Cl (stereo partly drawn) | 2.48
N#Cc1ccc(O[C@H]2CC[C@H](NC(=O)c3ccc(N4CCN(CCCCCNc5ccc6c(c5)C(=O)N(C5CCC(=O)NC5=O)C6=O)CC4)cc3)CC2)cc1Cl (stereo partly drawn) | 2.95
N#Cc1ccc(O[C@H]2CC[C@H](NC(=O)c3ccc(N4CCN(CC5CN(c6ccc7c(c6)C(=O)N(C6CCC(=O)NC6=O)C7=O)C5)CC4)cc3)CC2)cc1Cl (stereo partly drawn) | 2.48
N#Cc1ccc(O[C@H]2CC[C@H](NC(=O)c3ccc(NCCCCNc4ccc5c(c4)C(=O)N(C4CCC(=O)NC4=O)C5=O)cc3)CC2)cc1Cl (stereo partly drawn) | 3.04
N#Cc1ccc(O[C@H]2CC[C@H](NC(=O)c3ccc(NCCCCCNc4ccc5c(c4)C(=O)N(C4CCC(=O)NC4=O)C5=O)cc3)CC2)cc1Cl (stereo partly drawn) | 2.30
N#Cc1ccc(O[C@H]2CC[C@H](NC(=O)c3ccc(N4CCN(CCNc5ccc6c(c5)C(=O)N(C5CCC(=O)NC5=O)C6=O)CC4)cc3)CC2)cc1Cl (stereo partly drawn) | 2.90
N#Cc1ccc(O[C@H]2CC[C@H](NC(=O)c3ccc(NCCCCCCCCNc4ccc5c(c4)C(=O)N(C4CCC(=O)NC4=O)C5=O)cc3)CC2)cc1Cl (stereo partly drawn) | 3.18
